Target: Peroxisome proliferator-activated receptor gamma (Homo sapiens, UniProt P37231)
Sequence (P37231 whole entry): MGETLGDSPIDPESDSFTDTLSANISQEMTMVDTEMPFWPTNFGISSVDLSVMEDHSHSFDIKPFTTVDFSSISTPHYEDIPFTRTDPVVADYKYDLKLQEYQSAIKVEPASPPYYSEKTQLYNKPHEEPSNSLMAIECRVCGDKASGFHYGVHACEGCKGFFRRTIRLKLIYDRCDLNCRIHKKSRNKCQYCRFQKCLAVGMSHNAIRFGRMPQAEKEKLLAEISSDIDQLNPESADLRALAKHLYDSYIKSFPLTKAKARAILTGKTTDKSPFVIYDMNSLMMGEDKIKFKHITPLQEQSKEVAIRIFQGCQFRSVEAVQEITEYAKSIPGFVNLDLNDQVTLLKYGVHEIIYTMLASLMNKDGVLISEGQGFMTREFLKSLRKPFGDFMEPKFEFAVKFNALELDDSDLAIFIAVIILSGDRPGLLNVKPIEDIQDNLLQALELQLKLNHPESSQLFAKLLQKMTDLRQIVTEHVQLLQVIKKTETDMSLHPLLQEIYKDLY
Assay: Agonist activity at PPARgamma (unknown origin)
attribute.measured: pEC50
// field semantics: pEC50 = negative decimal log of concentration (mol/L)

Check the records and state pEC50 for "COc1ccc(F)c(-c2ccc(Cc3ccc(N4N=C(C(F)(F)F)[C@@H](C)[C@@H]4CC(=O)O)cc3)c(C)c2)c1"
5.59

* * *

Assay: Clearance in cynomolgus monkey at 0.5 mg/kg, iv administered as single dose measured up to 24 hrs post dose by LC-MS/MS analysis
Format: ADME, organism-based, Macaca fascicularis
Settings: in vivo
attribute.measured: clearance (mL/min/kg)

A. COc1cc(N2CC[C@@H](Oc3ccc(N4N=C(C(F)(F)F)[C@@H](C)[C@@H]4CC(=O)O)cc3)[C@H](C)C2)c(Cl)cn1
B. CCOc1ccc(F)c(N2CC[C@@H](Oc3ccc(N4N=C(C(F)(F)F)[C@@H](C)[C@@H]4CC(=O)O)cc3)[C@H](F)C2)c1
Lower value of clearance belongs to which: A or B ? In your reply, give the label of the chosen option.
A
(A: 0.7 mL/min/kg, B: 4 mL/min/kg)

* * *

Experiment: Oral bioavailability in C57BL6 mouse at 1 mg/kg administered as single dose measured up to 24 hrs post dose by LC-MS/MS analysis
Format: ADME, organism-based
Settings: in vivo
attribute.measured: bioavailability (%)
Use % as the unit, but write only the number.

Let me know recorded bioavailability for "COc1cc(N2CC[C@@H](Oc3ccc(N4N=C(C(F)(F)F)[C@@H](C)[C@@H]4CC(=O)O)cc3)[C@H](C)C2)c(Cl)cn1" , thanks.
100

* * *

Assay: Cmax in Beagle dog at 1 mg/kg, po administered as single dose measured up to 24 hrs post dose by LC-MS/MS analysis
Type: ADME, organism-based, Canis lupus familiaris
Design: dose 1 mg/kg, route oral
Settings: in vivo
attribute.measured: Cmax (nM)
// return numeric value only (unit: nM, not printed)

Dear colleague, please send me the reported Cmax for "COc1cc(N2CC[C@@H](Oc3ccc(N4N=C(C(F)(F)F)[C@@H](C)[C@@H]4CC(=O)O)cc3)[C@H](C)C2)c(Cl)cn1" when you can.
1200

* * *

Experiment: Oral bioavailability in Sprague-Dawley rat at 3 mg/kg administered via gavage as single dose measured up to 24 hrs post dose by LC-MS/MS analysis
Assay type: ADME, organism-based
Conditions: in vivo
attribute.measured: bioavailability (%)

- COc1cc(N2CC[C@@H](Oc3ccc(N4N=C(C(F)(F)F)[C@@H](C)[C@@H]4CC(=O)O)cc3)[C@H](C)C2)c(Cl)cn1: 47

1. CCOc1ccc(F)c(N2CC[C@@H](Oc3ccc(N4N=C(C(F)(F)F)[C@@H](C)[C@@H]4CC(=O)O)cc3)[C@H](F)C2)c1
2. COc1ccc(F)c(N2CCC(Oc3ccc(N4N=C(C(F)(F)F)[C@@H](C)[C@@H]4CC(=O)O)cc3)CC2)c1
Of the pair 1 and 2 , name the member with the lesser recorded bioavailability. In your reply, give the label of the chosen option.
2

* * *

Experiment: Half life in CD1 mouse at 1 mg/kg, iv administered as bolus dose or 1 mg/kg, po administered as single dose measured up to 24 hrs post dose by LC-MS/MS analysis
Type: ADME, organism-based
Conditions: in vivo
attribute.measured: half-life (h)

- COc1cc(N2CC[C@@H](Oc3ccc(N4N=C(C(F)(F)F)[C@@H](C)[C@@H]4CC(=O)O)cc3)[C@H](C)C2)c(Cl)cn1: 3.1

A. COc1ccc(F)c(N2CCC(Oc3ccc(N4N=C(C(F)(F)F)[C@@H](C)[C@@H]4CC(=O)O)cc3)CC2)c1
B. CCOc1ccc(F)c(N2CC[C@@H](Oc3ccc(N4N=C(C(F)(F)F)[C@@H](C)[C@@H]4CC(=O)O)cc3)[C@H](F)C2)c1
Select one: A or B . Criterion: greater recorded half-life. Give the chosen item's label as your response.
B

* * *

Experiment: Clearance in cynomolgus monkey at 0.2 mg/kg, iv administered as single dose measured up to 24 hrs post dose by LC-MS/MS analysis
Assay type: ADME, organism-based, Macaca fascicularis
Details: in vivo
attribute.measured: clearance (L/h/kg)
Please state the figure in L/h/kg; there is no need to write the unit.

Determine from records and report clearance for "COc1ccc(F)c(N2CCC(Oc3ccc(N4N=C(C(F)(F)F)[C@@H](C)[C@@H]4CC(=O)O)cc3)CC2)c1"
0.396

* * *

Assay: Volume of distribution at steady state in CD1 mouse at 1 mg/kg, iv via bolus dose or 1 mg/kg, po administered as single dose measured up to 24 hrs post dose by LC-MS/MS analysis
Format: ADME, organism-based
Details: in vivo, read-out: Vdss
attribute.measured: Vd (L/kg)

* CCOc1ccc(F)c(N2CC[C@@H](Oc3ccc(N4N=C(C(F)(F)F)[C@@H](C)[C@@H]4CC(=O)O)cc3)[C@H](F)C2)c1 | 0.7

A. COc1cc(N2CC[C@@H](Oc3ccc(N4N=C(C(F)(F)F)[C@@H](C)[C@@H]4CC(=O)O)cc3)[C@H](C)C2)c(Cl)cn1
B. COc1ccc(F)c(N2CCC(Oc3ccc(N4N=C(C(F)(F)F)[C@@H](C)[C@@H]4CC(=O)O)cc3)CC2)c1
Form: Entry with minimum Vd (choose one): A / B To answer, give the label that identifies your chosen option.
A

* * *

Assay: Stability in rat liver microsomes assessed as parent compound remaining at 1 to 3 uM incubated for 20 mins in presence NADPH measured up to 90 mins by LC/MS/MS analysis
Assay type: ADME, microsome
Conditions: liver microsomes, read-out: Stability
attribute.measured: remaining at 20 min, up to 3 µM (%)

• COc1cc(N2CC[C@@H](Oc3ccc(N4N=C(C(F)(F)F)[C@@H](C)[C@@H]4CC(=O)O)cc3)[C@H](C)C2)c(Cl)cn1 = 75
• CCOc1ccc(F)c(N2CC[C@@H](Oc3ccc(N4N=C(C(F)(F)F)[C@@H](C)[C@@H]4CC(=O)O)cc3)[C@H](F)C2)c1 = 79

* * *

Test: Volume of distribution at steady state in Beagle dog at 0.5 mg/kg, iv administered as single dose measured up to 24 hrs post dose by LC-MS/MS analysis
Type: ADME, organism-based, Canis lupus familiaris
Settings: in vivo, read-out: Vdss
attribute.measured: Vd (L/kg)

• CCOc1ccc(F)c(N2CC[C@@H](Oc3ccc(N4N=C(C(F)(F)F)[C@@H](C)[C@@H]4CC(=O)O)cc3)[C@H](F)C2)c1 = 0.6
• COc1cc(N2CC[C@@H](Oc3ccc(N4N=C(C(F)(F)F)[C@@H](C)[C@@H]4CC(=O)O)cc3)[C@H](C)C2)c(Cl)cn1 = 0.6

* * *

Assay: Half life in cynomolgus monkey at 0.2 mg/kg, iv administered as single dose measured up to 24 hrs post dose by LC-MS/MS analysis
Assay type: ADME, organism-based, Macaca fascicularis
Details: in vivo
attribute.measured: half-life (h)
Report the figure in h without appending any unit label.

Please list half-life recorded for the molecule "COc1ccc(F)c(N2CCC(Oc3ccc(N4N=C(C(F)(F)F)[C@@H](C)[C@@H]4CC(=O)O)cc3)CC2)c1"
5.3

* * *

Target: Amine oxidase [flavin-containing] B (Homo sapiens)
Sequence (P27338 whole entry): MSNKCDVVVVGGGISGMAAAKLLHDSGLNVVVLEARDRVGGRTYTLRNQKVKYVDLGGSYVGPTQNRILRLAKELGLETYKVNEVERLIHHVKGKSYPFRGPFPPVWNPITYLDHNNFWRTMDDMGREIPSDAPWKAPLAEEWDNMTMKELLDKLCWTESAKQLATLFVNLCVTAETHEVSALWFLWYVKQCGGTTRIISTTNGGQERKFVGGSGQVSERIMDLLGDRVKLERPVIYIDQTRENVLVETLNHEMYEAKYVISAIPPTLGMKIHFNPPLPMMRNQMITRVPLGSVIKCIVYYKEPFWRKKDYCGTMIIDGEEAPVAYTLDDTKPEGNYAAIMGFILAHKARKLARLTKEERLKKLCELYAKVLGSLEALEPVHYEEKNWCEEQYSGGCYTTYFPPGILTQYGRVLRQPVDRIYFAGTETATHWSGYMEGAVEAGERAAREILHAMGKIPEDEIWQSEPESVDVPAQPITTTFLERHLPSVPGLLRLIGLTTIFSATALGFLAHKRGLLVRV
attribute.measured: pIC50
FYI, pIC50 means -log10 of a concentration in mol per litre.

Give recorded pIC50. "COc1cc(N2CC[C@@H](Oc3ccc(N4N=C(C(F)(F)F)[C@@H](C)[C@@H]4CC(=O)O)cc3)[C@H](C)C2)c(Cl)cn1"
5.22

* * *

Target: UniProt O14842
Sequence (O14842 whole entry): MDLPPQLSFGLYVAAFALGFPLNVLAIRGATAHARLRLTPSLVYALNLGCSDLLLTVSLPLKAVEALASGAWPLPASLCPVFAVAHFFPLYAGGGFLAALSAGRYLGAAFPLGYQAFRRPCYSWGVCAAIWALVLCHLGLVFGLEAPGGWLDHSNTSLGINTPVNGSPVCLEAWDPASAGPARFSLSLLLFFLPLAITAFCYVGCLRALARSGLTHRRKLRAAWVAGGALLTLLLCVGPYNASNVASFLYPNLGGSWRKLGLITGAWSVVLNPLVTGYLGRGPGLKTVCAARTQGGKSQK
Assay: Agonist activity at human GPR40 expressed in CHOA12 cells assessed as induction of Ca2+ mobilization by FLIPR assay
attribute.measured: EC50 (µM)

For orientation, consider the following solved cases.
• C[C@@H]1C(C(F)(F)F)=NN(c2ccc(OC3CCN(c4cc(Cl)ccc4Cl)CC3)cc2)[C@H]1CC(=O)O = 0.25
• CCOc1ccc(F)c(N2CC[C@@H](Oc3ccc(N4N=C(C(F)(F)F)[C@@H](C)[C@@H]4CC(=O)O)cc3)[C@H](F)C2)c1 = 0.15
• COc1ccc(F)c(N2CCC(Oc3ccc(N4N=C(C(F)(F)F)[C@@H](C)[C@@H]4CC(=O)O)cc3)CC2)c1 = 0.11
• COc1cc(N2CC[C@@H](Oc3ccc(N4N=C(C(F)(F)F)[C@@H](C)[C@@H]4CC(=O)O)cc3)[C@H](C)C2)c(Cl)cn1 = 0.07
• COc1ccc(F)c(N2CC[C@@H](Oc3ccc(N4N=C(C(F)(F)F)[C@@H](C)[C@@H]4CC(=O)O)cc3)[C@H](F)C2)c1 = 0.07

P. CCOc1ccc(F)c(N2CCC(Oc3ccc(N4N=C(C(F)(F)F)[C@@H](C)[C@@H]4CC(=O)O)cc3)CC2)c1
Q. COc1ccc(Cl)c(N2CCC(Oc3ccc(N4N=C(C(F)(F)F)[C@@H](C)[C@@H]4CC(=O)O)cc3)CC2)c1
R. COc1ccc(C#N)c(N2CCC(Oc3ccc(N4N=C(C(F)(F)F)[C@@H](C)[C@@H]4CC(=O)O)cc3)CC2)c1
Please put the entries in order of rising EC50. Put the labels in the order asked and list them.
Q, P, R
(Q: 0.1 µM, P: 0.22 µM, R: 0.68 µM)
